# protocol-notes: Solubility and stability of saturated solutions in pH 2-8 buffers at 25° C. (HPLC)
# Assay type: physicochemical
# condition: aqueous buffer, pH 3, aqueous buffer, thermodynamic from solid; pH of about 3; ca. 25° C.; after about 1 day; read-out: solubility in an aqueous solvent
measure-name: solubility at 1 day

# return recorded solubility at 1 day for input CC(C)C(=O)N1CCC[C@]12CN([C@H](C(N)=O)[C@@H](C)O)C2=O [Form MH] ~54.2 mg/mL

----------
# protocol-notes: Approximate solubility by stepwise dilution in solvents and solvent mixtures
# Format: physicochemical
# condition: 1/1 isopropanol/water (v/v), 22 °C, aqueous with cosolvent or surfactant or cyclodextrin, thermodynamic from solid, 1/1 isopropanol/water (volume ratio), about 22° C., read-out: Solubility S
measure-name: solubility

# return recorded solubility for input CC(C)C(=O)N1CCC[C@]12CN([C@H](C(N)=O)[C@@H](C)O)C2=O [Form MH] 71 to 107 mg/mL

----------
# protocol-notes: Solubility and stability of saturated solutions in pH 2-8 buffers at 25° C. (HPLC)
# Assay type: physicochemical
# condition: aqueous buffer, pH 7, aqueous buffer, thermodynamic from solid; pH of about 7; ca. 25° C.; after about 4 days; read-out: solubility in an aqueous solvent
measure-name: solubility at 4 days

# return recorded solubility at 4 days for input CC(C)C(=O)N1CCC[C@]12CN([C@H](C(N)=O)[C@@H](C)O)C2=O [Form MH] ~53 mg/mL
